# target-or-test-system: human 5-HT5A receptor (Homo sapiens (Human), UniProt P47898)
# Sequence (P47898 whole entry): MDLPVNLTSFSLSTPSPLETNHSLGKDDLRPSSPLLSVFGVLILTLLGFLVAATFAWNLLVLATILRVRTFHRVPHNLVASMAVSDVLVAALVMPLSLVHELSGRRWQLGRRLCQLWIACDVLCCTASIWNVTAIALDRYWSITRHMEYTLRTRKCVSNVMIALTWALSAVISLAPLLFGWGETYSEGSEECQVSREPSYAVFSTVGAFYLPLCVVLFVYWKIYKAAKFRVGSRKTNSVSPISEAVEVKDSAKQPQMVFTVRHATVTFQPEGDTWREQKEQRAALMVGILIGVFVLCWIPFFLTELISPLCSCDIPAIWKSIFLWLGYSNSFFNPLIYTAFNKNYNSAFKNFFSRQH
# measurement-protocol: Test on a human 5-HT5A receptor binding inhibition ([3H]5-CT)
# settings: [3H]5-CT binding, membrane from HEK293 cells expressing human 5-HT5A receptor; Ki calculated from IC50
assay-readout: Ki

Solved cases (3 shown):
>>> meas_value("NC(N)=NC(=O)c1ccc2cccc(-c3ccccc3)c2n1")
"100 to 300 nM"
>>> meas_value("Cc1ccccc1-c1ncc(Cl)c2ccc(C(=O)N=C(N)N)cc12")
"1 to 10 nM"
>>> meas_value("NC(N)=NC(=O)c1ccc2nccc(-c3ccc(F)c(C(F)(F)F)c3)c2c1")
"100 to 300 nM"

Enquiry: Which value of Ki has been reported for "COc1cccc(F)c1-c1ncc(Cl)c2ccc(C(=O)N=C(N)N)cc12" in the records?
Return: 1 to 10 nM

Enquiry: Which value of Ki has been reported for "NC(N)=NC(=O)c1ccc2nc(C(F)(F)F)cc(-c3c(F)cc(F)cc3F)c2c1" in the records?
Return: 10 to 100 nM
